tested on: human embryonic kidney HEK 293 cells; test: cells; assay type: cell-based; conditions: Homo sapiens, HEK293; MTS assay, 24 h of cell incubation, mean ± SD; read-out: IC50, HEK 293
Exercise: state measured pIC50 for each of the compounds provided.
Numbers only, as −log10 of the molar value.

Please supply pIC50 for each of the following items, keeping them in order.
1. C=C(C)C1C2CC3(C)C4=CCC5C(C)(C)C(OC6OCC(O)C(O)C6OC6OC(C)C(O)C(O)C6OC6OCC(O)C(O)C6O)CCC5(C)C4CCC13C(=O)O2 (stereo not shown)
2. CO[C@@H]1[C@@H](O)[C@H](O[C@@H]2[C@@H](O)[C@H](O[C@H]3[C@H](O)[C@@H](O)[C@H](O[C@H]4[C@H](O[C@H]5CC[C@]6(C)C7=C(CC[C@H]6C5(C)C)[C@]5(C)C[C@H](O)[C@H]([C@@](C)(O)CCC=C(C)C)[C@@]5(CO)CC7)OC[C@@H](O)[C@@H]4O)O[C@@H]3C)O[C@H](CO)[C@H]2O)OC[C@H]1O
3. CO[C@@H]1[C@@H](O)[C@H](O[C@@H]2[C@@H](O)[C@H](O[C@H]3[C@H](O)[C@@H](O)[C@H](O[C@H]4[C@H](O[C@H]5CC[C@]6(C)C7=C(CC[C@H]6C5(C)C)[C@]5(C)C[C@H](OC(C)=O)[C@H]([C@@](C)(O)CCC=C(C)C)[C@@]5(CO)CC7)OC[C@@H](O)[C@@H]4O)O[C@@H]3C)O[C@H](CO)[C@H]2O)OC[C@H]1O

1: 4.57; 2: 4.28; 3: 4.73

pIC50 for COC1C(O)COC(OC2C(O)C(CO)OC(OC3C(C)OC(OC4C(OC5CCC6(C)C7=C(CCC6C5(C)C)C5(C)CC(OC(C)=O)C6C(C)(C=CC=C(C)C)OC(=O)C65CC7)OCC(O)C4O)C(O)C3O)C2O)C1O (stereo not shown) is 4.82
